src = patent US20250152719A1

- assay procedure: Mouse pharmacokinetics
- Format: in vivo, ICR mice
- applied conditions: ICR, mouse, plasma, po, 10 mg/kg, Mouse i.g. 10 mpk; read-out: Cmax
# label = yes (1) if Cmax < 2000 ng/mL else no (0)

NC(=O)c1ncc(N2CCCCC2)nc1Nc1ccc(N2CCC(CN3CCc4ccc5c(C6CCC(=O)NC6=O)noc5c4CC3)CC2)cc1 (stereo not drawn) = yes (1)
CN1CCN([C@@H]2CCCN(c3cnc(C(N)=O)c(Nc4ccc(C5CCN(CC6Cc7ccc8c(C9CCC(=O)NC9=O)noc8c7C6)CC5)cc4)n3)C2)C1=O (stereo partly drawn) = yes (1)
NC(=O)c1ncc(N2CCCCC2)nc1Nc1ccc(C2CCN(C3Cc4ccc5c(C6CCC(=O)NC6=O)noc5c4C3)CC2)cc1 (stereo not drawn) = no (0)
CN1CCN([C@@H]2CCCN(c3cnc(C(N)=O)c(Nc4ccc(C5CCN(C6CN(c7ccc8c(C9CCC(=O)NC9=O)noc8c7)C6)CC5)cc4)n3)C2)C1=O (stereo partly drawn) = no (0)
CN1CCN([C@@H]2CCCN(c3cnc(C(N)=O)c(Nc4ccc(C5CCN(CC6CN(c7ccc8c(C9CCC(=O)NC9=O)noc8c7)C6)CC5)cc4)n3)C2)C1=O (stereo partly drawn) = yes (1)

Okay, next one:
Input line: Is the reported Cmax for CN1CCN([C@@H]2CCCN(c3cnc(C(N)=O)c(Nc4ccc(N5CCC(CN6CCc7ccc8c(C9CCC(=O)NC9=O)noc8c7CC6)CC5)cc4)n3)C2)C1=O (stereo partly drawn) strictly below 2000 ng/mL?
Output line: yes (1)

* * *

- target: BTK (Homo sapiens (Human), UniProt Q06187)
- Sequence (Q06187 whole entry): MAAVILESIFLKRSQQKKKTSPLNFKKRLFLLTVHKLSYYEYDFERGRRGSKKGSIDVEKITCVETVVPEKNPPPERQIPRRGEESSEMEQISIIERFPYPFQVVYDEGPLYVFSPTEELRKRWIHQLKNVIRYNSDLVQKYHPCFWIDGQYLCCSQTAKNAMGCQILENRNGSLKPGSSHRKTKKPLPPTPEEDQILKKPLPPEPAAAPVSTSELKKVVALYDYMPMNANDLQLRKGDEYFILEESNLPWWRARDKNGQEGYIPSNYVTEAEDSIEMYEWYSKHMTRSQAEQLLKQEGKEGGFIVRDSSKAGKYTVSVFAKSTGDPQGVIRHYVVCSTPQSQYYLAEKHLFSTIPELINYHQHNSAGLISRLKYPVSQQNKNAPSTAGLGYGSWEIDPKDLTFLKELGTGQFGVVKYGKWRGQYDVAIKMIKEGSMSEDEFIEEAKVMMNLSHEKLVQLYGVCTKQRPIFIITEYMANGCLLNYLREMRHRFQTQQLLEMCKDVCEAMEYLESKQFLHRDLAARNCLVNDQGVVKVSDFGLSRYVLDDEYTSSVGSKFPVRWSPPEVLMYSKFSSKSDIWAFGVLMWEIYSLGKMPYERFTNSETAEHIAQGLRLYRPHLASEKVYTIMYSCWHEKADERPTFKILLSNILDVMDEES
- assay procedure: BTK degradation in OCI-LY10 cells (Total-BTK HTRF kit)
- Type: cell-based
- applied conditions: OCI-LY10 cells, 24 (or 6) h incubation; maximum degradation rate
- Description: The detection was carried out using the Total-BTK Kits (cisbio, 63ADK064PEH), and 4× Supplemented Lysis buffer was prepared using the Blocking reagent stock solution (100×) and Lysis buffer stock solution (4×). Premixed antibody solutions were prepared using the Detection buffer, Total-BTK d2 antibody, and Total-BTK Eu Cryptate antibody. […]
outcome measure: BTK degradation in OCI-LY10 cells Dmax

Respectfully, I request BTK degradation in OCI-LY10 cells Dmax for each entry included below.
1. CN1CCN([C@@H]2CCCN(c3cnc(C(N)=O)c(Nc4ccc(C5CCN(C6Cc7ccc8c(C9CCC(=O)NC9=O)noc8c7C6)CC5)cc4)n3)C2)C1=O (stereo partly drawn)
2. CN1CCN([C@@H]2CCCN(c3cnc(C(N)=O)c(Nc4ccc(C5CCN([C@H]6CC[C@@H](n7ccc8c9c(C%10CCC(=O)NC%10=O)noc9ccc87)CC6)CC5)cc4)n3)C2)C1=O (stereo partly drawn)

Output line:
>90%
>90%

Measured on BTK (Homo sapiens (Human), UniProt Q06187), CN1CCN([C@@H]2CCCN(c3cnc(C(N)=O)c(Nc4ccc(C5CCN(C[C@H]6C[C@H](n7ccc8c9c(C%10CCC(=O)NC%10=O)noc9ccc87)C6)CC5)cc4)n3)C2)C1=O (stereo partly drawn) has a documented BTK degradation in OCI-LY10 cells Dmax of >90%

* * *

- assay procedure: Mouse pharmacokinetics
- Format: in vivo, ICR mice
- applied conditions: ICR, mouse, plasma, iv, 1 mg/kg, Mouse i.v. 1 mpk
For each of the compounds below, state its clearance.
One number for each entry, in mL/min/kg.

Recorded results for 2 compounds are shown here.
CN1CCN([C@@H]2CCCN(c3cnc(C(N)=O)c(Nc4ccc(C5CCN(CC6Cc7ccc8c(C9CCC(=O)NC9=O)noc8c7C6)CC5)cc4)n3)C2)C1=O (stereo partly drawn) = 1.72
NC(=O)c1ncc(N2CCCCC2)nc1Nc1ccc(N2CCC(CN3CCc4ccc5c(C6CCC(=O)NC6=O)noc5c4CC3)CC2)cc1 (stereo not drawn) = 12

Let us move to another entry and its clearance.
Lab note: measured clearance of NC(=O)c1ncc(N2CCCCC2)nc1Nc1ccc(C2CCN(C3Cc4ccc5c(C6CCC(=O)NC6=O)noc5c4C3)CC2)cc1 (stereo not drawn) was 2
